# assay.system: Protein farnesyltransferase (Rattus norvegicus, UniProt Q02293+Q04631)
# assay.name: Inhibition of farnesyl transferase
# Assay type: protein-complex assay
pIC50: −log10 of the molar value.
measurement.kind: pIC50

Study these solved cases before continuing.
CC(C)[C@H](NCc1cc(F)ccc1O)C(=O)N[C@@H](Cc1ccccc1)C(=O)N[C@@H](CC[S+](C)[O-])C(=O)O (stereo partly specified) ... 5.80
COc1ccc(O)c(CN[C@H](C(=O)N[C@@H](Cc2ccccc2)C(=O)N[C@@H](CCSC)C(=O)O)C(C)C)c1 ... 5.42
CSCC[C@H](NC(=O)[C@H](Cc1ccccc1)NC(=O)[C@@H](NCc1cccc(OC/C=C(\C)CC/C=C(\C)CCC=C(C)C)c1O)C(C)C)C(=O)O ... 4.15
CSCC[C@H](NC(=O)[C@H](Cc1ccccc1)NC(=O)[C@@H](NCc1cc(Cl)ccc1O)C(C)C)C(=O)O ... 6.30
CSCC[C@H](NC(=O)[C@H](Cc1ccccc1)NC(=O)[C@@H](NCc1cccc(O)c1)C(C)C)C(=O)O ... 4.89

A. COCCOCOc1ccc(Cl)cc1CN[C@H](C(=O)N[C@@H](Cc1ccccc1)C(=O)N[C@@H](CCSC)C(=O)O)C(C)C
B. CSCC[C@H](NC(=O)[C@H](Cc1ccccc1)NC[C@@H](NCc1cc(Cl)ccc1O)C(C)C)C(=O)O
C. CSCC[C@H](NC(=O)[C@H](Cc1ccccc1)NC(=O)[C@@H](NCc1cc(Br)ccc1O)C(C)C)C(=O)O
Endpoint returns the given compounds ordered by ascending pIC50. List the labels according to the requested ordering. B, A, C
(B: 5.64, A: 6.12, C: 6.35)

a. CSCC[C@H](NC(=O)[C@H](Cc1ccccc1)NC(=O)[C@@H](NCc1cccc(F)c1O)C(C)C)C(=O)O
b. CSCC[C@H](NC(=O)[C@H](Cc1ccccc1)NC(=O)[C@@H](NCc1ccccc1)C(C)C)C(=O)O
Looking at recorded values for pIC50, does a or b come in lower? Kindly state the label of the option you pick. b

====

# assay.system: Protein farnesyltransferase (Rattus norvegicus, UniProt Q02293+Q04631)
# assay.name: Inhibition of farnesyl transferase
# Type: protein-complex assay
measurement.kind: IC50 (µM)

CSCC[C@H](NC(=O)[C@H](Cc1ccccc1)NC(=O)[C@@H](NC(c1ncccc1O)c1ncccc1O)C(C)C)C(=O)O ... 30
CSCC[C@H](NC(=O)[C@H](Cc1ccccc1)NC(=O)[C@@H](NCc1cc(O)ccc1O)C(C)C)C(=O)O ... 24
CSCC[C@H](NC(=O)[C@H](Cc1ccccc1)NC(=O)[C@@H](NCc1ccc(O)cc1)C(C)C)C(=O)O ... 17
COCCOCOc1ccc(C(F)(F)F)cc1CN[C@H](C(=O)N[C@@H](Cc1ccccc1)C(=O)N[C@@H](CCSC)C(=O)O)C(C)C ... 16

a. CSCC[C@H](NC(=O)[C@H](Cc1ccccc1)NC(=O)[C@@H](NCc1ccccc1S)C(C)C)C(=O)O
b. CC[C@H](C)[C@H](NC(=O)[C@@H](NC(=O)[C@@H](N)CS)C(C)C)C(=O)N[C@@H](CCSC)C(=O)O
c. CSCC[C@H](NC(=O)[C@H](Cc1ccccc1)NC(=O)[C@@H](NCc1c(O)ccc2ccccc12)C(C)C)C(=O)O
Endpoint returns the given molecules ordered by ascending IC50. List the labels according to the requested ordering. b, c, a

====

# assay.system: Protein farnesyltransferase (Rattus norvegicus, UniProt Q02293+Q04631)
# assay.name: Inhibition of farnesyl transferase
# Format: protein-complex assay
measurement.kind: IC50 (µM)

CSCC[C@H](NC(=O)[C@H](Cc1ccccc1)NC(=O)[C@@H](NCc1ccccc1O)C(C)C)C(=O)O ... 2.4

a. CSCC[C@H](NC(=O)[C@H](Cc1ccccc1)NC(=O)[C@@H](NCc1cc(C(F)(F)F)ccc1O)C(C)C)C(=O)O
b. CSCC[C@H](NC(=O)[C@H](Cc1ccccc1)NC(=O)[C@@H](NCc1ncccc1O)C(C)C)C(=O)O
Looking at recorded values for IC50, does a or b come in lower? Kindly state the label of the option you pick. a
(a: 2.1 µM, b: 30 µM)

====

Each item that follows carries a reported IC50.
# assay.system: Protein farnesyltransferase (Rattus norvegicus, UniProt Q02293+Q04631)
# assay.name: Inhibition of farnesyl transferase
# Type: protein-complex assay

Study these solved cases before continuing.
CSCC[C@H](NC(=O)[C@H](Cc1ccccc1)NC(=O)[C@@H](NCc1ccccc1SC(c1ccccc1)c1ccccc1)C(C)C)C(=O)O ... ~100 µM
CCCOC(=O)c1ccc(O)c(CN[C@H](C(=O)N[C@@H](Cc2ccccc2)C(=O)N[C@@H](CCSC)C(=O)O)C(C)C)c1 ... ~100 µM

Okay, now this compound:
Short answer for CC[C@H](C)[C@H](NC(=O)[C@@H](NC(=O)[C@@H](N)CO)C(C)C)C(=O)N[C@@H](CCSC)C(=O)O : IC50 was > 100 µM
